# Read-out: Interferon-gamma inducible Protein 10 (IP10), CXCL10 (gene 3627)
# TEST METHOD NOTES: BSK_BE3C_IP10: BioMAP Diversity Plus: BE3C Assay for Interferon-gamma inducible Protein 10 (IP10) Biomarker Activity (AID 2283034)
# PARTICULARS: primary human bronchial epithelial cells; actives raise or lower the signal
Activity calls are given as the source filed them. The calls were made as follows: active = hit-call score of the fitted dose curve at least 0.9, where 1 is the maximum; inactive = score below 0.9.
// allowed return values: active, inactive

Example results:
{"columns": ["COMPOUND", "ASSIGNED CLASS"],
 "data": [
  ["c1ccc(-c2ccccn2)nc1", "inactive"],
  ["O=C1CCCN1CCO", "inactive"],
  ["C=CC=CC=CCCCCC", "active"]
]}

*Q* In this assay, the call recorded for `c1ccc2c(c1)ccc1cc3c(ccc4ccccc43)cc12` was what?
*A* inactive

*Q* Queued: `O=C(Cl)c1cc(C(=O)Cl)cc(C(=O)Cl)c1`
*A* active

*Q* Field entry: `O=C(Nc1ccccc1SSc1ccccc1NC(=O)c1ccccc1)c1ccccc1`
*A* active

*Q* Request: C=CCOCC(O)CCl (stereo not drawn)
*A* inactive

*Q* Record: CC1OC1C1CCC2(C)OC2C1 (stereo not drawn)
*A* inactive
